Tested on: solid tumor cell lines
Assay: 3-day proliferation assay (CellTiter-Glo)
Assay type: cell-based, human
Conditions: Homo sapiens, KPL-1, KPL1, Breast
Experimental: Various tumor cell lines were obtained from different sources including; the American Type Cell Culture Collection, the Developmental Therapeutics Program, the National Cancer Institute, the German Resource Center for Biological Material and the European Collection of Animal Cell Cultures. […] Cell growth was determined relative to untreated (DMSO) controls. EC50's were calculated from inhibition curves using a 4- or 6-parameter fitting algorithm in the Assay Client application.

{"structure.string": "Cn1ncc(Cl)c1-c1cc(C(=O)N[C@H](CN)Cc2cccc(F)c2)sc1Cl", "IC50": "3830 nM"}
{"structure.string": "Cn1ncc(Cl)c1-c1cc(C(=O)N[C@H](CN)Cc2ccc(F)c(F)c2)oc1Cl", "IC50": "1390 nM"}

---

System: solid tumor cell lines
Assay: 3-day proliferation assay (CellTiter-Glo)
Format: cell-based, human
Conditions: Homo sapiens, DBTRG-05MG, DBTRG05MG, Brain
Protocol: Various tumor cell lines were obtained from different sources including; the American Type Cell Culture Collection, the Developmental Therapeutics Program, the National Cancer Institute, the German Resource Center for Biological Material and the European Collection of Animal Cell Cultures. […] Cell growth was determined relative to untreated (DMSO) controls. EC50's were calculated from inhibition curves using a 4- or 6-parameter fitting algorithm in the Assay Client application.
pIC50: −log10 of the molar value.

{"molecule": "Cn1ncc(Cl)c1-c1cc(C(=O)N[C@H](CN)Cc2cccc(F)c2)sc1Cl [GSK2110183]", "pIC50": 5.35}
{"molecule": "Cn1ncc(Cl)c1-c1cc(C(=O)N[C@H](CN)Cc2ccc(F)c(F)c2)oc1Cl [GSK2141795]", "pIC50": 5.43}

---

test system: solid tumor cell lines; test: 3-day proliferation assay (CellTiter-Glo); type: cell-based, human; settings: Homo sapiens, SW1088, SW1088, Brain
Reported IC50 is given for each of the following molecules.
measured.endpoint: IC50

{"structure.string": "Cn1ncc(Cl)c1-c1cc(C(=O)N[C@H](CN)Cc2cccc(F)c2)sc1Cl", "assay.value": "952 nM"}
{"structure.string": "Cn1ncc(Cl)c1-c1cc(C(=O)N[C@H](CN)Cc2ccc(F)c(F)c2)oc1Cl", "assay.value": "532 nM"}

---

Tested on: hematological tumor cell lines
Test: 3-day proliferation assay (CellTiter-Glo)
Type: cell-based, human
Settings: Homo sapiens, CCRF-SB, CCRFSB cell line; ALL; B Cell
Procedure: Various tumor cell lines were obtained from different sources including; the American Type Cell Culture Collection, the Developmental Therapeutics Program, the National Cancer Institute, the German Resource Center for Biological Material and the European Collection of Animal Cell Cultures. […] Cell growth was determined relative to untreated (DMSO) controls. EC50's were calculated from inhibition curves using a 4- or 6-parameter fitting algorithm in the Assay Client application.
measured.endpoint: IC50

{"compound": "Cn1ncc(Cl)c1-c1cc(C(=O)N[C@H](CN)Cc2ccc(F)c(F)c2)oc1Cl [GSK2141795]", "assay.value": "20 nM"}
{"compound": "Cn1ncc(Cl)c1-c1cc(C(=O)N[C@H](CN)Cc2cccc(F)c2)sc1Cl [GSK2110183]", "assay.value": "56 nM"}

---

test system: solid tumor cell lines; assay: 3-day proliferation assay (CellTiter-Glo); assay type: cell-based, human; conditions: Homo sapiens, T47D, T-47D, Breast
pIC50: −log10 of the molar value.

{"compound": "Cn1ncc(Cl)c1-c1cc(C(=O)N[C@H](CN)Cc2cccc(F)c2)sc1Cl [GSK2110183]", "pIC50": 6.48}
{"compound": "Cn1ncc(Cl)c1-c1cc(C(=O)N[C@H](CN)Cc2ccc(F)c(F)c2)oc1Cl [GSK2141795]", "pIC50": 7.20}
